# protocol: qHTS for differential inhibitors of proliferation of Plasmodium falciparum line W2 (AID 1883);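 further: parasites grown with compound for 72 h before lysis and staining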
# protocolConditions: Plasmodium falciparum W2 proliferation inhibition; series mostly up to 28.7 µM
Inconclusive results are not listed. Active and inactive are the calls of the source. The call rests on the fitted dose curve; in most records, active means well fitted curve in the direction sought with a large enough effect; inconclusive means small, poorly fitted or top-dose-only effect, or another doubt; inactive means no such curve, though single readings can be large or run the other way.
Possible outcomes: t for active, f for inactive

- compound: "O=c1ccn([C@@H]2O[C@H](COP(=O)(O)OP(=O)(O)O)[C@@H](O)[C@H]2O)c(=O)[nH]1"
  labelValue: "f"
- compound: "Cc1cccc(C)c1OCC(N)C(C)C (stereo unspecified)"
  labelValue: "t"
- compound: "COC(=O)C1=C(C)NC(C)=C([N+](=O)[O-])C1c1ccccc1C(F)(F)F (stereo unspecified)"
  labelValue: "t"
- compound: "N#CC(=C(\\N)Sc1ccccc1N)/C(C#N)=C(/N)Sc1ccccc1N"
  labelValue: "t"
- compound: "N[C@@H](Cc1ccc(F)cc1)C(=O)O"
  labelValue: "t"
- compound: "O=C(O)c1cccnc1C(=O)O"
  labelValue: "f"
- compound: "NC(=O)CC[C@H](N)C(=O)O"
  labelValue: "f"
- compound: "CO/N=C(\\C(=O)N[C@@H]1C(=O)N2C(C(=O)O)=C(CSc3nc(=O)c(O)nn3C)CSC12)c1csc(N)n1 (stereo partly specified)"
  labelValue: "f"
- compound: "CCCCCCC/C=C\\CCCCCCCCC(=O)O"
  labelValue: "f"
- compound: "COc1ccccc1N1CCN(CCCCN2C(=O)c3ccccc3C2=O)CC1"
  labelValue: "t"
- compound: "Oc1ccc(Cn2cc[nH]c2=S)cc1"
  labelValue: "f"
- compound: "O=C(O)[C@H]1NCCC[C@H]1C(=O)O"
  labelValue: "f"
- compound: "CC(=O)NNC(=O)N1Cc2ccccc2Oc2ccc(Cl)cc21"
  labelValue: "f"
- compound: "CCCCOC(=O)NS(=O)(=O)c1sc(CC(C)C)cc1-c1ccc(Cn2c(CC)nc3c(C)cc(C)nc32)cc1"
  labelValue: "t"
- compound: "CCCCCCCCCCCCCCSCC(=O)O"
  labelValue: "f"
- compound: "NCCNS(=O)(=O)c1cccc2c(Cl)cccc12"
  labelValue: "t"
- compound: "CCCCS(=N)(=O)CC[C@H](N)C(=O)O (stereo partly specified)"
  labelValue: "t"
- compound: "CCCCCC(O)CCCC(=O)O (stereo unspecified)"
  labelValue: "f"
- compound: "CCn1c(=O)[nH]c2cc(Cl)c(Cl)cc21"
  labelValue: "f"
- compound: "N[C@@H](CS(=O)O)C(=O)O"
  labelValue: "f"
- compound: "C#CCn1c(=O)c2c(ncn2C)n(C)c1=O"
  labelValue: "f"

Numbers sourced from PubChem BioAssay (NCATS).
